settings: 70 K; 101.33 kPa; Crystal; relaxation calorimetry
Numbers after ± are expanded uncertainties.
QUANTITY MEASURED: molar entropy

// known answers, use as guide
>  <COMPOUND>
OC[C@@H](O)[C@H](O)[C@@H](O)CO [xylitol]

>  <molar entropy>
32.7 ± 3 J/K/mol

$$$$
>  <COMPOUND>
OC[C@@H](O)[C@@H](O)[C@H](O)[C@H](O)CO [D-mannitol]

>  <molar entropy>
39.94 ± 3.7 J/K/mol

$$$$
>  <COMPOUND>
OC[C@H](O)C(O)[C@@H](O)CO [L-(-)-arabitol]

>  <molar entropy>
35.36 ± 3.2 J/K/mol

$$$$

Given the entry OC[C@@H](O)[C@@H](O)CO [meso-1,2,3,4-butanetetrol] , report its measured molar entropy.
30.57 ± 2.8 J/K/mol

Given the entry O[C@H]1[C@H](O)[C@@H](O)[C@H](O)[C@@H](O)[C@H]1O [cis-1,2,3,5-trans-4,6-cyclohexanehexol] , report its measured molar entropy.
33 ± 3 J/K/mol

Given the entry OC[C@@H](O)C(O)[C@H](O)CO [D-arabitol] , report its measured molar entropy.
35.01 ± 3.2 J/K/mol
